System: giant foxtail
run-description: Test A pre-/postemergence herbicide test
Type: in vivo, Setaria faberi
condition-details: Preemergence, 2000 g ai/ha; visual rating, 0 to 100 scale (0 no effect, 100 complete control)
Answer each item with its documented Foxtail, Giant plant response rating.
Answers are plain numbers.

>>> print(df.to_string())
                               smiles_entry  readout_value
0  CCNC(=O)c1ccc(F)c(NC(=O)c2cc(C(C)(C)C)nn2CC)n1             85
1  CCc1nc(C(C)(C)C)sc1C(=O)Nc1cccc(C(=O)N(CC)CC)c1            100
2  CCN(CC)C(=O)c1ccnc(NC(=O)c2cc(C(C)(C)C)nn2CC)c1             60

Dear colleague, could you send me Foxtail, Giant plant response rating for each of the items below? Thanks.
1. CCN(C)C(=O)c1ccc(F)c(NC(=O)c2cc(C(C)(C)C)nn2CC)n1
2. C#CCNC(=O)c1cccc(NC(=O)c2sc(C(C)(C)C)nc2CC)c1
3. Cn1nc(C(C)(C)C)cc1C(=O)Nc1cccc(C#N)c1
4. CCn1nc(C(C)(C)C)cc1C(=O)Nc1cccc(C(C)=O)c1
5. CCn1nc(C(C)(C)C)cc1C(=O)Nc1cc(C(=O)NC(C)(C)C)ccn1

(A)
1: 45; 2: 80; 3: 75; 4: 85; 5: 70

###

System: small flower umbrella sedge
run-description: Test B flooded paddy test
Type: in vivo, Cyperus difformis
condition-details: 1000 g ai/ha, visual rating, scale 0 to 100 (0 no effect, 100 complete control), 13 to 15 days
endpoint: Sedge, Umbrella plant response rating
One number for each entry.

See these solved cases before continuing.
                                   compound  readout_value
0  CCNC(=O)c1ccc(F)c(NC(=O)c2cn(C(C)(C)C)nc2CC)c1 [Compound 193]             80
1  CCn1nc(C(C)(C)C)cc1C(=O)Nc1cc(C(=O)NC(C)(C)C)ccn1 [Compound 154]             20
2  Cn1nc(C(C)(C)C)cc1C(=O)Nc1cccc(C#N)c1 [Compound 121]              0

# compound CCN1CCc2c(NC(=O)c3cc(C(C)(C)C)nn3CC)cccc2C1=O [Compound 63] ; its Sedge, Umbrella plant response rating = 100

###

For each entry below, report its Plant response rating, Foxtail, Giant value.
Test system: giant foxtail
run-description: Test B pre-/postemergence herbicide test
Assay type: in vivo, Setaria faberi
condition-details: 500 g ai/ha; visual rating, 0 = no effect, 100 = complete control; preemergence
Answers are plain numbers.

Dear reader, for each entry below, please note its Plant response rating, Foxtail, Giant.
1. CCNC(=O)c1cccc(NC(=O)c2nn(C(C)C)nc2CC)c1
2. CCc1nc(C(C)(C)C)sc1C(=O)Nc1cccc(C(=O)N(CC)CC)n1
3. CCN1N=C(C(C)(C)C)CC1C(=O)Nc1cc(C(=O)N2CC=CC2)ccc1F (racemic)
4. CCSCNC(=O)c1cccc(NC(=O)c2cc(C(C)(C)C)nn2CC)c1

(A)
[100, 90, 100, 0]

###

Test system: velvetleaf
run-description: Test A pre-/postemergence herbicide test
Type: in vivo, Abutilon theophrasti
condition-details: Preemergence, 2000 g ai/ha; visual rating, 0 to 100 scale (0 no effect, 100 complete control)
endpoint: Velvetleaf plant response rating
One number for each entry.

Reference set (5 entries):
>>> df
                                   molecule  system_name  readout_value
0  CCOC(=O)c1cc(NC(=O)c2cc(C(C)(C)C)nn2CC)ccc1OCC [Compound 95]   velvetleaf             80
1  Cn1nc(C(C)(C)C)cc1C(=O)Nc1cccc(C(=O)NC2CC2)n1 [Compound 315]   velvetleaf             30
2  CCNC(=O)c1ccc(F)c(NC(=O)C2CC(C(C)(C)C)=NN2CC)c1 (racemic) [Compound 269]   velvetleaf            100
3  CCNC(=O)c1cccc(NC(=O)c2cc(C(C)(C)C)nn2CC)n1 [Compound 144]   velvetleaf             90
4  CCN(CC)C(=O)c1cccc(NC(=O)c2sc(C(C)(C)C)nc2C)c1 [Compound 199]   velvetleaf             90

Now take the following molecule into account.
Entry CC(=O)c1cccc(NC(=O)c2cc(C(C)(C)C)nn2CCF)c1 [Compound 128] , Velvetleaf plant response rating reported as 85
